# System: MDA-MB-435 melanoma
# MEASUREMENT_PROTOCOL: NCI-60 one-dose screen, 48 h
# EXPERIMENTAL_PARAMETERS: 10 µM unless noted
Compounds without any hit were thinned out: in the full panel of roughly 83,000, 20% have a hit. Calls of active or inactive are those of the source. How the source made its calls: active means growth percent below 10; inactive means the rest.
Classes used: label 1 (active), label 0 (inactive)

1. C=C(C)[C@@H]1CC[C@]2(CNCCO)CC[C@]3(C)[C@H](CC[C@@H]4[C@@]5(C)CCC(N)[C@@](C)(CO)[C@@H]5CC[C@]43C)[C@@H]12 (stereo partly specified): label 1
2. CC(C)OC(=O)OCOP(=O)(OCOC(=O)OC(C)C)C1CCCN(O)C1=O (stereo unspecified): label 0
3. Cc1cc(Cc2cc(C)cc(C(C)(C)C)c2O)c(O)c(C(C)(C)C)c1: label 0
4. CCNCCNc1cc(-c2ccc(Cl)cc2)c(C#N)c2nc3ccccc3n12: label 1
5. CCn1c(Sc2nnc(Nc3ccccc3)s2)nc2c1c(=O)n(C)c(=O)n2C: label 0
6. O=[N+]([O-])c1ccccc1C(O)Cc1ccc2ccccc2n1 (stereo unspecified): label 0
7. Cc1c(Cl)cccc1NS(=O)(=O)c1ccccc1: label 0
8. COc1cc2nc(Nc3ccc(F)cc3)nc(N)c2cc1OC: label 0
9. COc1ccc(N=c2nc3sc4cc(Cl)ccc4n3c(N)c2C#N)cc1: label 0
10. CC(C)(C)Nc1c(-c2c3ccccc3cc3ccccc23)nc2ccccn12: label 0
11. CC(C)N(CCOC(=O)Nc1ccccc1Cl)C(C)C: label 0
12. O=C1Nc2ccccc2/C1=N/N=C/c1ccsc1: label 0
13. CCCCCCCC/C=C\CCCCCCCC(=O)Oc1cccc2cccnc12: label 0
14. Cc1cc(N(CCCNc2ccnc3cc(Cl)ccc23)Cc2ccccn2)nc(N2CCCC2)n1: label 0
15. Cc1[nH]c(-c2nc3ccccc3[nH]2)c(C)c1C(=O)NNc1ccc(Cl)cc1: label 0
16. CC(C)(C)c1ccc(C(=O)Nc2sc3c(c2C(N)=O)CCC(=O)C3)cc1: label 1
17. Cn1cc(-c2ccc3nc(-c4ccc(CC(=O)Nc5cc(C(C)(C)C)no5)cc4)cnc3c2)cn1: label 0
18. C=C(C)[C@@H]1CC[C@]2(CO)CC[C@]3(C)[C@H](CC[C@@H]4[C@@]5(C)C=C(C#N)C(=O)C(C)(C)[C@@H]5CC[C@]43C)[C@@H]12: label 0
19. O=C(O)C1C[C@](O)(c2ccc(F)cc2)[C@@H](c2ccc(F)cc2)O1 (stereo partly specified): label 0
20. Cc1ccc(O)c(C(=O)c2ccccc2Cl)c1: label 0
21. CCCCCCNC(=O)c1cc(NCc2cc(O)ccc2O)ccc1O: label 0

###

# Tested on: SK-MEL-2 melanoma
# MEASUREMENT_PROTOCOL: NCI-60 one-dose screen, 48 h
# EXPERIMENTAL_PARAMETERS: 10 µM unless noted
The panel holds about 83,000 compounds, 20% with a hit somewhere; the sample as a whole holds those more often. The source made the active and inactive calls. How the source made its calls: active means growth percent below 10; inactive means the rest.
Classes used: active, inactive

1. CC(C)(C)c1ccc(C(=O)Nc2sc3c(c2C(N)=O)CCC(=O)C3)cc1: active
2. NC(N)=N/N=C/c1ccc(Br)cc1: inactive
3. NC(N)=N/N=C/CO: inactive
4. CC(c1ccc(-n2cccn2)cc1)c1cnc(N2CCc3ccc(C(N)=O)cc3C2)s1 (stereo not given): inactive
5. COc1ccc(/C=C(\C#N)n2nnc3ccccc32)cc1: inactive

###

Catalogue of compounds with associated growth
# System: UACC-62 melanoma
# MEASUREMENT_PROTOCOL: NCI-60 one-dose screen, 48 h (100 = growth as untreated, 0 = no growth, -100 = all killed)
# EXPERIMENTAL_PARAMETERS: 10 µM unless noted
The panel holds about 83,000 compounds, 20% with a hit somewhere; the sample as a whole holds those more often. Activity calls are given as the source filed them. Rule for the calls: active = growth percent below 10; inactive = the rest.
MEASUREMENT_KIND: growth

1. CC(C)c1ccc(NC(=O)Cc2ccc(Nc3ncnc4cc(-c5cnn(CCN(C)C)c5)ccc34)cc2)cc1: -89.1% [30 µM] (active)
2. Cc1cccc(-c2cc(O)c(C(=O)N3CCOCC3)s2)c1: 34.5% (inactive)
3. Cc1nc(Nc2ccc(NC(=S)Nc3ccccc3)cc2)nc2nc(SCc3ccccc3)[nH]c(=O)c12: 81.7% (inactive)
4. COc1ccc(Oc2nc(Nc3ccc(N4CCOCC4)nc3)ncc2NC(=O)c2cc(OC)cc(OC)c2)cc1: 69.3% (inactive)
5. CC(=O)c1cc2c(o1)C(=O)c1ccccc1C2=O: -82.7% (active)
6. CCCN1CCN(c2ccc3nc(-c4ccc5nc(-c6cc(OC)c(OC)c(OC)c6)[nH]c5c4)[nH]c3c2)CC1: 35.8% (inactive)
7. COc1cc2c(cc1OC)-c1ccc3cc4c(cc3c1N(CCCn1ccnc1)C2)OCO4: -20.4% (active)
8. O=C1C=CC(=Nc2cc(Br)c(O)c(Br)c2)C=C1: 67.6% (inactive)
9. C[N+](C)(C)CCOC(OCC[N+](C)(C)C)(c1ccccc1)c1ccccc1: 99.3% (inactive)
10. N#Cc1cccc(-c2nc3ccccn3c2NCCN2CCOCC2)c1: 95.5% (inactive)
11. COc1ccc(-c2nc3sc4c(c3c(=O)[nH]2)CCCC4)c2ccccc12: 24.4% (inactive)
12. COc1ccc(-c2cc(-c3cc(OC)ccc3O)[nH]c(=O)c2C#N)cc1: 41.4% (inactive)
13. O=C(NCOC(O)C(Cl)(Cl)Cl)NCOC(O)C(Cl)(Cl)Cl (stereo not given): 98.8% (inactive)
14. CC(=O)Nc1ccc(C(=O)/C=C/c2ccccc2)cc1: 90% (inactive)
15. CCN(CC)CCOc1ccc(/C(=C(\C)c2ccc(OC)c(F)c2)c2ccc(Cl)cc2)cc1: 60.1% (inactive)
16. N#Cc1c(N)n2c(nc1=Nc1ccc([N+](=O)[O-])cc1)sc1cc(Cl)ccc12: 53.1% (inactive)
17. CN1C[C@@H](c2ccc(Cl)cc2)[C@]2(NC(=S)N(c3ccc(F)c(Cl)c3)C2=O)[C@@]12C(=O)NC1C=CC(Cl)=C[C@H]12 (stereo not given in full): 55.7% (inactive)
18. COc1ccc2cc(-c3ccc(C(=O)NN)c(C)n3)ccc2c1: 82.1% (inactive)
19. C=C1c2c(C)nn(-c3ccc(N)cc3)c2N(C)C23CC1C1(C)c4c(C)nn(-c5ccc(N)cc5)c4N(C)C(C)(CC12)C3 (stereo not given): 77.1% (inactive)
20. CC[C@@H](C[C@H](CCO)c1ccccc1)c1cc2ccccc2o1: 88.4% (inactive)

###

# Test system: HS 578T breast
# MEASUREMENT_PROTOCOL: NCI-60 one-dose screen, 48 h (100 = growth as untreated, 0 = no growth, -100 = all killed)
# EXPERIMENTAL_PARAMETERS: 10 µM unless noted
Compounds without any hit were thinned out: in the full panel of roughly 83,000, 20% have a hit. Active and inactive are the calls of the source. The calls were made as follows: active = growth percent below 10; inactive = the rest.
Catalogue of compounds with associated growth
MEASUREMENT_KIND: growth

1) COc1ccc(O)c(-c2cc(-c3ccccc3)c(C#N)c(=O)[nH]2)c1: 89.6% (inactive)
2) O=C(Nc1ccccc1Cl)OCCN1CCOCC1: 120% (inactive)
3) C#CC[C@H](N)C(=O)O: 111% [20 µM] (inactive)
4) COc1ccc(-n2nnc(C(=O)NCCc3c[nH]c4ccc(F)cc34)c2C)cc1: 96.5% (inactive)
5) CCOc1ccc(S(=O)(=O)c2ccc(C)cc2)c2c1no[n+]2[O-]: 78.4% (inactive)
6) O=C1Nc2ccccc2SC1c1ccccc1Cl (stereo unspecified): 80.4% (inactive)
7) CCN(CC)N=Nc1nn(C(=O)Nc2ccc(Cc3ccccc3)cc2)c2ccc(Cl)cc12: 91.5% (inactive)
8) COc1cc2oc(-c3cccc(C(=O)Nc4ccc(C#N)cc4)c3)cc(=O)c2c(O)c1OC: 83.4% (inactive)
9) CN(C)c1ccc(/C=N/NC(=O)COc2cc(=O)n(C)c3ccccc23)cc1: 120% (inactive)
10) CCNCCNc1cc(-c2ccc(C(=O)OC)cc2)c(C#N)c2nc3ccccc3n12: 59.3% (inactive)
11) CCCCCCCC/C=C/CCCCCCCC1=NCC[N+]1(CCO)CCO: 88.6% (inactive)

###

Catalogue of compounds with associated growth
# Tested on: HT29 colon
# MEASUREMENT_PROTOCOL: NCI-60 one-dose screen, 48 h (100 = growth as untreated, 0 = no growth, -100 = all killed)
# EXPERIMENTAL_PARAMETERS: 10 µM unless noted
The panel holds about 83,000 compounds, 20% with a hit somewhere; the sample as a whole holds those more often.
MEASUREMENT_KIND: growth (%)

1. OCCCCc1nccc2c1[nH]c1ccccc12: 94.6
2. CC[C@]1(O)C[C@H]2CN(CCc3c([nH]c4ccccc34)[C@@](C(=O)OC)(c3cc4c(cc3OC)N(C=O)[C@H]3[C@@](O)(C(=O)OC)[C@H](OC(C)=O)[C@]5(CC)C=CCN6CC[C@]43[C@@H]65)C2)C1: -3.03
3. O=S(=O)(NCCNc1cc(-c2c(-c3cccc(O)c3)nc3sccn23)ccn1)c1ccc(Br)cc1: 51
4. CCOC(=O)C1C(=O)C=C(c2cnccn2)CC1c1ccc(OC)c(OC)c1 (centres undefined): 93.1
5. COc1cc(NC(=O)c2cc(O)c(CC=C(C)C)c(O)c2)cc2c1O[C@]1(C)CC[C@@H](O)C(C)(C)[C@H]1C2: 5.24
6. c1ccc2c(c1)nc(-n1ccnc1)c1nc3ccccc3n12: 74
7. CCNCCNc1cc(-c2ccc(C(=O)OC)cc2)c(C#N)c2nc3ccccc3n12: 4.67
8. CC(C)(C)N1CC(OC(N)=O)C1: 101
9. Cc1cccc(-c2cc(O)c(C(=O)N3CCOCC3)s2)c1: 52.2
